assayedSystem: UniProt Q923Y9
experimentalDetails: Radioligand binding assay on rat TAAR1
particulars: rat TAAR1, HEK-293 membranes; second value of the mouse/rat pair
Give measured Ki for each item. Keep answers brief.
Answers are plain numbers, in µM.

These recorded examples may help you get a feel for the data.
O=C(Nc1ccc2c(c1F)CCN1CCNC[C@@H]21)c1ccnc(C(F)(F)F)c1 : 7.63
O=C(Nc1ccc(Cl)nc1)c1ccc2c(c1)CCN1CCNC[C@@H]21 : 0.682
c1cc2c(cc1Nc1ncc(C3CC3)cn1)CCN1CCNC[C@@H]21 : 0.0192

Below are 2 molecules. Give each one its Ki.
1. Cc1nsc(Nc2ccc3c(c2)CCN2CCNC[C@@H]32)n1
2. CC(C)c1cc(C(=O)Nc2ccc3c(c2)CCN2CCNC[C@@H]32)n(C)n1

**A:**
0.826
0.869

###

Give measured log10 of Ki for each item. Keep answers brief.
assayedSystem: rat TAAR1 (Rattus norvegicus (Rat), UniProt Q923Y9)
Sequence (Q923Y9 whole entry): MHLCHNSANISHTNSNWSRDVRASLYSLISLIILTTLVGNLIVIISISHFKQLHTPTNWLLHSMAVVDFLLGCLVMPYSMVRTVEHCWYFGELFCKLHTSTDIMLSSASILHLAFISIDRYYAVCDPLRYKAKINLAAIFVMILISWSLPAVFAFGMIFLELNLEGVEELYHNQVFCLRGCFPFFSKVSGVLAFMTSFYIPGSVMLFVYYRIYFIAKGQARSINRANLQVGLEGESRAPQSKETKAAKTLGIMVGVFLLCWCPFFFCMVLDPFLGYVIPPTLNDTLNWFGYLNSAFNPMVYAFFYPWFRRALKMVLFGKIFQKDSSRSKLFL
experimentalDetails: Radioligand binding assay on rat TAAR1
particulars: rat TAAR1, HEK-293 membranes; second value of the mouse/rat pair
Each number you see is log10 of Ki, and the unit inside the log is µM.

These recorded examples may help you get a feel for the data.
FC(F)(F)COc1cnc(Nc2ccc3c(c2)CCN2CCNC[C@@H]32)nc1 : -1.92
COc1cc(Nc2ccc3c(c2)CCN2CCNC[C@@H]32)nc(C(F)(F)F)n1 : -2.04
Cc1cc(Nc2ccc3c(c2)CCN2CCNC[C@@H]32)nc(C)n1 : -0.34
FC(F)(F)c1cnc(Nc2ccc3c(c2)CCN2CCNC[C@@H]32)cn1 : -1.45
FC(F)(F)c1nccc(Nc2ccc3c(c2)CCN2CCNC[C@@H]32)n1 : -1.82
FC(F)(F)c1cnc(Nc2ccc3c(c2)CCN2CCNC[C@H]32)cn1 : 0.30
Fc1cccc2c1CCN1CCNC[C@@H]21 : -0.70

Now examine the next entry.
**Q:** Value lookup for log10 of Ki; key = "O=C(Nc1ccc(Cl)cc1)c1ccc2c(c1)CCN1CCNC[C@@H]21"
**A:** -0.56

###

assayedSystem: mouse TAAR1 (Mus musculus (Mouse))
Sequence (Q923Y8 whole entry): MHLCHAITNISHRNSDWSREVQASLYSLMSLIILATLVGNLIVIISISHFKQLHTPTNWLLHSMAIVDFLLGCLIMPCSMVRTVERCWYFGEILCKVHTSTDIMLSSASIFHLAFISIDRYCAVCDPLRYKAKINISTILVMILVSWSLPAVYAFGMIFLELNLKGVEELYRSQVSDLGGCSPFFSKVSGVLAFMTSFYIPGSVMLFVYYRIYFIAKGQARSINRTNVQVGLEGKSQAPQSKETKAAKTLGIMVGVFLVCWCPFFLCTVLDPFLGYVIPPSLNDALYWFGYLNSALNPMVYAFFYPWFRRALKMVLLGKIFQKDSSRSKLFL
experimentalDetails: Radioligand binding assay on mouse TAAR1
particulars: mouse TAAR1, HEK-293 membranes; first value of the mouse/rat pair
Give measured Ki for each item. Keep answers brief.
Numbers only, in µM.

Below are 5 compounds. Give each one its Ki.
1. COc1ccc(NC(=O)c2ccc3c(c2)CCN2CCNC[C@@H]32)cn1 [Example 45]
2. Cc1nsc(Nc2ccc3c(c2)CCN2CCNC[C@@H]32)n1 [Example 40]
3. Cc1ccc2c(c1)CCN1CCNC[C@@H]21 [Example 28]
4. Fc1c(Nc2cc(Cl)nc(C(F)(F)F)n2)ccc2c1CCN1CCNC[C@H]21 [Example 31]
5. CN(C)c1cc(Nc2ccc3c(c2)CCN2CCNC[C@@H]32)nc(C(F)(F)F)n1 [Example 19]

**A:**
0.299
0.202
0.29
0.835
0.0231

###

assayedSystem: rat TAAR1 (Rattus norvegicus (Rat), UniProt Q923Y9)
experimentalDetails: Radioligand binding assay on rat TAAR1
particulars: rat TAAR1, HEK-293 membranes; second value of the mouse/rat pair
Note to self: use yes only for Ki readings below 0.2 µM; a reading exactly at 0.2 µM still gets no.

FC(F)(F)c1cnc(Nc2ccc3c(c2)CCN2CCNC[C@@H]32)nc1 : yes
c1cnc(Nc2ccc3c(c2)CCN2CCNC[C@@H]32)nc1 : no
c1ccc2c(c1)CCN1CCNC[C@@H]21 : no
FC(F)(F)c1ccnc(Nc2ccc3c(c2)CCN2CCNC[C@@H]32)n1 : yes
Fc1cc2c(cc1Nc1ncc(C(F)(F)F)cn1)CCN1CCNC[C@@H]21 : no

**Q:** Hello, is Ki of the following molecule strictly smaller than 0.2 µM? "COc1ccc(NC(=O)c2ccc3c(c2)CCN2CCNC[C@@H]32)cn1"
**A:** no

Entry source: patent US9828374B2
